Biological target: feline FcRn complex (FcRn-α subunit and β-microglobulin) (feline)
Assay: SPR (Biacore), FcRn on SA chip, pH 6
Rule for this label: Fulfilled means Kd is less than 0.03 nM; Not fulfilled means Kd is at least 0.03 nM.

Here are 3 binders together with their reported answers.
>>> classification("feline IgG1a mutant ID No. 378: S252Y, S434R, T403R (antibody, part only; not given: Variable domains, not shown: another chain or arm of the molecule) constant: ASTTAPSVFPLAPSCGTTSGATVALACLVLGYFPEPVTVSWNSGALTSGVHTFPAVLQASGLYSLSSMVTVPSSRWLSDTFTCNVAHPPSNTKVDKTVRKTDHPPGPKPCDCPKCPPPEMLGGPSIFIFPPKPKDTLYISRTPEVTCLVVDLGPDDSDVQITWFVDNTQVYTAKTSPREEQFNSTYRVVSVLPILHQDWLKGKEFKCKVNSKSLPSPIERTISKAKGQPHEPQVYVLPPAQEELSRNKVSVTCLIKSFHPPDIAVEWEITGQPEPENNYRTTPPQLDSDGRYFVYSKLSVDRSHWQRGNTYTCSVSHEALHRHHTQKSLTQSPGK")
"Not fulfilled"
>>> classification("feline IgG1a mutant ID No. 327: S428Y, D312P, S434Y, P247V, T250Q (antibody, part only; not given: Variable domains, not shown: another chain or arm of the molecule; small tags and cut ends) constant: ASTTAPSVFPLAPSCGTTSGATVALACLVLGYFPEPVTVSWNSGALTSGVHTFPAVLQASGLYSLSSMVTVPSSRWLSDTFTCNVAHPPSNTKVDKTVRKTDHPPGPKPCDCPKCPPPEMLGGPSIFIFPPKVKDQLSISRTPEVTCLVVDLGPDDSDVQITWFVDNTQVYTAKTSPREEQFNSTYRVVSVLPILHQPWLKGKEFKCKVNSKSLPSPIERTISKAKGQPHEPQVYVLPPAQEELSRNKVSVTCLIKSFHPPDIAVEWEITGQPEPENNYRTTPPQLDSDGTYFVYSKLSVDRSHWQRGNTYTCSVYHEALHYHHTQKSLTQSPGK")
"Not fulfilled"
>>> classification("feline IgG1a mutant ID No. 299: S428Y, Q311W, D312P, L314K, S434Y (antibody, part only; not given: variable domains and light chain, not shown: another chain or arm of the molecule) constant: ASTTAPSVFPLAPSCGTTSGATVALACLVLGYFPEPVTVSWNSGALTSGVHTFPAVLQASGLYSLSSMVTVPSSRWLSDTFTCNVAHPPSNTKVDKTVRKTDHPPGPKPCDCPKCPPPEMLGGPSIFIFPPKPKDTLSISRTPEVTCLVVDLGPDDSDVQITWFVDNTQVYTAKTSPREEQFNSTYRVVSVLPILHWPWKKGKEFKCKVNSKSLPSPIERTISKAKGQPHEPQVYVLPPAQEELSRNKVSVTCLIKSFHPPDIAVEWEITGQPEPENNYRTTPPQLDSDGTYFVYSKLSVDRSHWQRGNTYTCSVYHEALHYHHTQKSLTQSPGK")
"Not fulfilled"

*Q* Please check: Kd for feline IgG1a mutant ID No. 352: S252Y, S428M, S434F, Q311Y (antibody, part only; not given: Variable domains, not shown: another chain or arm of the molecule) constant: ASTTAPSVFPLAPSCGTTSGATVALACLVLGYFPEPVTVSWNSGALTSGVHTFPAVLQASGLYSLSSMVTVPSSRWLSDTFTCNVAHPPSNTKVDKTVRKTDHPPGPKPCDCPKCPPPEMLGGPSIFIFPPKPKDTLYISRTPEVTCLVVDLGPDDSDVQITWFVDNTQVYTAKTSPREEQFNSTYRVVSVLPILHYDWLKGKEFKCKVNSKSLPSPIERTISKAKGQPHEPQVYVLPPAQEELSRNKVSVTCLIKSFHPPDIAVEWEITGQPEPENNYRTTPPQLDSDGTYFVYSKLSVDRSHWQRGNTYTCSVMHEALHFHHTQKSLTQSPGK , strictly under 0.03 nM or not?
*A* Fulfilled
